assay: basal S. cerevisiae growth modulation, no modifier, primary screen, OD600, strain BY4716, 24 h, basal condition (AID 1173); settings: OD600, 24 h, higher = more signal, called active from +8 up or from −8 down
The source made the active and inactive calls.
Measured attribute: z-score

Here is how some compounds turned out for z-score.
The compound identified as COCCOC(=O)N1C(=O)[C@@]2(c3cc(C#CCCO)ccc31)[C@H](C(=O)N1CCCCCCC1)[C@H]1C(=O)O[C@H](c3ccccc3)[C@H](c3ccccc3)N1[C@@H]2c1ccc(O)cc1 registered its z-score at -1.74 (inactive)

The compound identified as CC(=O)NCCCC[C@@H]1NC(=O)[C@H]2C[C@@H](C(=O)NCCCCCCN(C)C)[C@@H](c3ccc(O)cc3)N2C1=O registered its z-score at -0.191 (inactive)

Others:
The compound identified as CN(C)C(=O)[C@@]1(Cc2ccccc2N=[N+]=[N-])N=C(c2ccc(OCCCO)cc2)O[C@H]1c1ccccc1CN=[N+]=[N-] registered its z-score at -1.4 (inactive)

###

test system: Human papillomavirus type 1a protein E7 (residues 44-93); assay: HPV1a E7 fragment binders on microarrays, primary screen, biochemical, small-molecule microarray, residues 44-93, 635 nm fluorescence (AID 1108); details: small-molecule microarray binding, fluorescence 635 nm; higher = more signal;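 further: E7 fragment applied at 1 µg/mL in TBST for 1 h at 4 C; score combines spot fluorescence with its signal to noise ratio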
# binarize composite z-score: threshold -0.03 inclusive, high side Condition met, low side Condition not met

For this compound, is measured composite z-score -0.03 or higher? Cc1ccc(S[C@]2(C(=O)NC(C)C)CC(=O)N(C3Cc4ccccc4C3)[C@@H]2c2ccc(CO)cc2)cc1
Condition met

For this compound, is measured composite z-score -0.03 or higher? CCC(=O)[C@]12O[C@@]3([C@@H]4C(=O)OCC[C@@H]41)N(Cc1ccccc1)C(C)=C(C(=O)OC)[C@@H](c1ccccc1)N3C2=O
Condition not met

For this compound, is measured composite z-score -0.03 or higher? O=C1OCC=C[C@H]2OC34C=CCN(Cc5ccccc5)C(=O)[C@H]3N(CCCCCO)C(=O)[C@@H]4[C@@H]12 (stereo not given in full)
Condition not met

For this compound, is measured composite z-score -0.03 or higher? O=C1OCCC=C[C@H]2OC34C=CCN(Cc5ccccc5)C(=O)[C@H]3N(CCO)C(=O)[C@@H]4C12 (stereo not given in full)
Condition not met

For this compound, is measured composite z-score -0.03 or higher? CO[C@H]1COC(=O)CC=C[C@H](C)[C@@H](OC)COC(=O)CC=C[C@@H]1C
Condition not met

Others:
For this compound, is measured composite z-score -0.03 or higher? CO[C@@H]1COC(=O)[C@@H]2CCCN2C(=O)CC=C[C@@H](C)[C@H](OC)COC(=O)[C@@H]2CCCN2C(=O)CC=C[C@H]1C
Condition not met

For this compound, is measured composite z-score -0.03 or higher? COCCOC(=O)N1C(=O)[C@@]2(c3cc(C#CCNC(N)=O)ccc31)[C@H](C(=O)N1CCCCCCC1)[C@H]1C(=O)O[C@H](c3ccccc3)[C@H](c3ccccc3)N1[C@@H]2c1ccccc1OCCO
Condition met

For this compound, is measured composite z-score -0.03 or higher? C=C(COC)C(=O)CC[C@H](OC(=O)c1ccccc1-c1ccccc1C(=O)O)c1cccc(OCCO)c1
Condition met

For this compound, is measured composite z-score -0.03 or higher? CCCCCCc1nc(C2CC2)c(C)c2c1[Si](C(C)C)(C(C)C)OC2
Condition not met

For this compound, is measured composite z-score -0.03 or higher? CC(C)C[C@@H]1NC(=O)[C@H]2C[C@@H](C(=O)NCCCCCC[N+](C)(C)C)[C@@H](c3ccc(O)cc3)N2C1=O
Condition met

For this compound, is measured composite z-score -0.03 or higher? NC(=O)NCC#Cc1ccc2c(c1)[C@]1(C(=O)N2)[C@H](c2ccccc2OCCO)N2[C@H](c3ccccc3)[C@H](c3ccccc3)OC(=O)[C@H]2[C@@H]1C(=O)N1CCN(c2ncccn2)CC1
Condition met

For this compound, is measured composite z-score -0.03 or higher? CO[C@@H]1COC(=O)CC=C[C@@H](C)[C@H](OC)COC(=O)CC=C[C@H]1C
Condition not met

For this compound, is measured composite z-score -0.03 or higher? COc1cc2c(cc1OC)CN(C(=O)[C@@H]1[C@H]3C(=O)O[C@H](c4ccccc4)[C@H](c4ccccc4)N3[C@H](c3ccccc3OCCO)[C@@]13C(=O)Nc1ccccc13)CC2
Condition met

For this compound, is measured composite z-score -0.03 or higher? O=C(NCC(F)(F)F)[C@@H]1c2ccccc2C(=O)N(Cc2ccccc2Cl)[C@H]1c1ccc(CO)cc1
Condition not met
